I'd be grateful if you could share measured log10(DC50) for these entries.
system_tested: androgen receptor (Homo sapiens, UniProt P10275, T878A)
Construct: endogenous in cells; host or cells: LNCaP cells
Sequence (P10275 1-920 T878A): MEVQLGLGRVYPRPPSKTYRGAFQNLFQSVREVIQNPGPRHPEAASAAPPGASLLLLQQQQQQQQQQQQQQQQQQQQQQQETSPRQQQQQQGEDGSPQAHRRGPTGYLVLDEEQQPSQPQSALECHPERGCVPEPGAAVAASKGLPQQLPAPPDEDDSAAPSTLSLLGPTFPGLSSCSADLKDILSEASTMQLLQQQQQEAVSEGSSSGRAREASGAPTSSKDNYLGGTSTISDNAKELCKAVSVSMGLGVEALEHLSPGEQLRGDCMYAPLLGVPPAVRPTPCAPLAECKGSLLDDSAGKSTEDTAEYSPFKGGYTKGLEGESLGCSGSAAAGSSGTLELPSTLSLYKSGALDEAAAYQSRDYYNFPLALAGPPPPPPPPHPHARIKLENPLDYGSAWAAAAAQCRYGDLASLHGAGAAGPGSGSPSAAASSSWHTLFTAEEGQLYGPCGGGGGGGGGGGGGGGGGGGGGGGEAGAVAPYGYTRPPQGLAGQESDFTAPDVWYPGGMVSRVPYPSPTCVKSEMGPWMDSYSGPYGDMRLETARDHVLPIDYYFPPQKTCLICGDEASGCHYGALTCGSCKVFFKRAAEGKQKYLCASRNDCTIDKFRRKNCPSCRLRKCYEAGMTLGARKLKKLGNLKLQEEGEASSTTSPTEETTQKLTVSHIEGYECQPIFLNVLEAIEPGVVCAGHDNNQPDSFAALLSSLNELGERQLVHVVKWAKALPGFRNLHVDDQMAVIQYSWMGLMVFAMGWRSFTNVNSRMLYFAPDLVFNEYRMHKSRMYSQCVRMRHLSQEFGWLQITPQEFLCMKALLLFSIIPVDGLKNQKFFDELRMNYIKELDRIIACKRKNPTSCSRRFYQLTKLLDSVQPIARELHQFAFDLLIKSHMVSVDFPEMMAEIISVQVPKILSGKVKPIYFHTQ
assay_procedure: In-Cell-Western determination of androgen receptor degradation in LnCaP cells
Format: cell-based
reported_conditions: concentration for half of the maximal degradation of AR in LnCaP cells; 24 hours treatment
Short version: log10 scale, DC50, nM.

### Prompt Report measured log10(DC50); entry is CC1(C)C(=O)N(c2ccc(C#N)c(Cl)c2)c2ccc(-c3ccc(N4CC(CN5CCN(c6ccc7c(c6)CN(C6CCC(=O)NC6=O)C7=O)CC5)C4)cc3)cc21 (centres unmarked)
### Response 2.03

### Prompt Provide only the value of recorded log10(DC50) for CC1(C)C(=O)N(c2ccc(C#N)c(Cl)c2)c2ccc(-c3ccc(N4CC(CN5CCN(c6cc7c(cc6F)C(=O)N(C6CCC(=O)NC6=O)C7=O)CC5)C4)cc3)cc21 (centres unmarked)
### Response 1.86

### Prompt Identify measured log10(DC50) corresponding to CC1(C)C(=O)N(c2ccc(C#N)c(C(F)(F)F)c2)c2ccc(-c3ccc(N4CC(CN5CCN(c6ccc7c(c6)C(=O)N(C6CCC(=O)NC6=O)C7=O)CC5)C4)nc3F)cc21 (centres unmarked)
### Response 0.54

### Prompt Quick one: give measured log10(DC50) for CC1(C)C(=O)N(c2ccc(C#N)c(Cl)c2)c2ccc(-c3ccc(N4CC(CN5CCN(c6ccc7c(c6)C(=O)N(C6CCC(=O)NC6=O)C7=O)CC5)C4)cc3)cc21 (centres unmarked)
### Response 1.96

### Prompt # return recorded log10(DC50) for input CC1(C)C(=O)N(c2ccc(C#N)c(Cl)c2)c2ccc(-c3ccc(N4CC(CN5CCN(c6ccc7c(c6)C(=O)N(C6CCC(=O)NC6=O)C7=O)CC5)C4)nc3F)cc21 (centres unmarked)
### Response 1.82

Values compiled from patent US12441706B2.
